Measured activation factor of individual entries
assay: MT1-MMP promoter reporter activation – cell-based, luciferase luminescence, primary screen (AID 750); details: HT1080 MT1-MMP promoter luciferase reporter, overnight, at 10 µM, hits give high values
Out of some 86,000 compounds screened, about 140 (0.16%) were called active. For the sample, actives were picked, then their nearest neighbours and some compounds at random.
No unit in the answer, please; the number alone is enough.

[[record]]
compound = "Cc1ccc(-n2cc3ccc([N+](=O)[O-])cc3n2)cc1"
recorded_number = 0.9


Input: For the compound Cc1ccc(SCC(=O)c2cc(C)c(OC(=S)N(C)C)c(C)c2)cc1 , what activation factor is on record?
Output: 1.9

Input: Name the recorded activation factor for O=C1CCCc2nn(-c3ccccc3)nc21 .
Output: 1.5

Input: Look at this compound and give its reported activation factor. CC1CCC2(CC1)NC(=O)N(CC(=O)c1cccn1C)C2=O (stereo not drawn)
Output: 1.2

Input: For CCOn1c(SC(C)C)nc2ccccc2c1=O , what is its reported activation factor?
Output: 1.1

Input: Item Cc1ccc(S(=O)(=O)Nc2nc(C)cc(-n3nc(C)cc3C)n2)cc1 has what recorded activation factor?
Output: 1

Input: Looking for the measured activation factor of Cc1ccc(S(=O)(=O)c2c(COC(=O)c3cccc(Cl)c3)c(-c3ccccc3)nn2C)cc1 , can you help?
Output: 1.1

Input: For the compound O=C(CSC1=Nc2ccccc2C2=NC(CC(=O)NCc3ccco3)C(=O)N12)NCc1ccco1 (stereo not drawn) , what activation factor is on record?
Output: 1.1

FYI, the data here is from PubChem BioAssay AID750.
